I'd appreciate it if you could supply MIC values for the items below.
# System: Escherichia coli
# assay-protocol: Antimicrobial activity against Escherichia coli ATCC […] carrying Edwardsiella ictaluri pM07-1 by microdilution assay
# Type: functional
Give bare numbers, in µg/mL.

CO/N=C(\C(=O)N[C@@H]1C(=O)N2C(C(=O)O)=C(CSc3nc(=O)c(O)nn3C)CS[C@H]12)c1csc(N)n1: 32

Now for another entry.
Supply reported MIC belonging to this compound: "CS(=O)(=O)c1ccc([C@@H](O)[C@@H](CF)NC(=O)C(Cl)Cl)cc1"
256

Cited source: ChEMBL document CHEMBL1629617
